Molecular target: PI3Kδ (Homo sapiens, UniProt O00329)
Construct: made in house
Sequence (O00329 whole entry): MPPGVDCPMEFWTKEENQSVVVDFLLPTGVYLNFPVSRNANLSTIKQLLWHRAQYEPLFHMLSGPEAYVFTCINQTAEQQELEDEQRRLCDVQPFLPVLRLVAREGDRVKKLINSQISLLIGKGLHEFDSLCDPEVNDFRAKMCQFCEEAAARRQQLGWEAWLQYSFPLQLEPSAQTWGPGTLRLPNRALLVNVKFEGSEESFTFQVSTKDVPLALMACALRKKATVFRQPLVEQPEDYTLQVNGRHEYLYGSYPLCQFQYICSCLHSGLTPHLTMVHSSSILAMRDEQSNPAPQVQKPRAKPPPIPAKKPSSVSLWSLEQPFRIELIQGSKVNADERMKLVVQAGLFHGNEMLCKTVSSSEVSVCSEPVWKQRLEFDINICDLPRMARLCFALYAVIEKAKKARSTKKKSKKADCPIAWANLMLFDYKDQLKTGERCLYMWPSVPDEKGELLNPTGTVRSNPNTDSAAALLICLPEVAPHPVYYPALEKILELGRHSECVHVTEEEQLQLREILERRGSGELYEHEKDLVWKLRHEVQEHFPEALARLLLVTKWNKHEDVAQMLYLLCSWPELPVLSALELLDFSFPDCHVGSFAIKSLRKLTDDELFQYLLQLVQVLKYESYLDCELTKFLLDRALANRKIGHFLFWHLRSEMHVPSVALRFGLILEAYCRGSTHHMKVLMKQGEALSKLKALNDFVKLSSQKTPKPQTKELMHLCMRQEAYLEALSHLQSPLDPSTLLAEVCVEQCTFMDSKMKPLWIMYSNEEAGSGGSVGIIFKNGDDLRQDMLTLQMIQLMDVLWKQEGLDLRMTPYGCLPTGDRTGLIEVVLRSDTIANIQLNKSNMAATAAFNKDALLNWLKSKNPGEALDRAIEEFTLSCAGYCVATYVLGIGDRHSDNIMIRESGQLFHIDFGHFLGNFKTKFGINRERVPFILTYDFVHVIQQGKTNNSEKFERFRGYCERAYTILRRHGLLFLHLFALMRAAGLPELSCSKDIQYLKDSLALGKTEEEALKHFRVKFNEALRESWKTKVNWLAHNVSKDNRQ
Sequence (P27986 whole entry partner): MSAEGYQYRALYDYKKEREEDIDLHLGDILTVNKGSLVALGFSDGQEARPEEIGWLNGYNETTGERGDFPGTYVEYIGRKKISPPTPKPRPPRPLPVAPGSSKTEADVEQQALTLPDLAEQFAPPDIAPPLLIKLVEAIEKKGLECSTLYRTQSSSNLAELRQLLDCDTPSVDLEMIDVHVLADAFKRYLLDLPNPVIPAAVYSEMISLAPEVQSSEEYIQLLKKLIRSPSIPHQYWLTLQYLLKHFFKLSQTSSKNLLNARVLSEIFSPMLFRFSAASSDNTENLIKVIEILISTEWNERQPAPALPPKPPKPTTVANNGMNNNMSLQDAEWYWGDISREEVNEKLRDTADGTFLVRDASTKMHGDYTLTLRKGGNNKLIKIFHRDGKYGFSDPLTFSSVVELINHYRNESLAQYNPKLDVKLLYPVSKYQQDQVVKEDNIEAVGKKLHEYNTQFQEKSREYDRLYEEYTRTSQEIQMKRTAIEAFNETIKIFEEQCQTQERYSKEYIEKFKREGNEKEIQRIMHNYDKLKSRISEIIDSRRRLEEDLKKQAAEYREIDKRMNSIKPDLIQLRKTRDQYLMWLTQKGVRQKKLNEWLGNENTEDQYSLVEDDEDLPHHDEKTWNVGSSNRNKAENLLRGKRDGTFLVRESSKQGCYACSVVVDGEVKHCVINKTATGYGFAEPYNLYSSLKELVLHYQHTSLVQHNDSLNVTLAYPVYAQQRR
Experiment: TR-FRET enzymatic activity assay, PI3Kδ
Type: biochemical
Conditions: recombinant heterodimeric PI3Kδ 25-50 pM, 2× Km ATP, 30 minutes at 25°C
pIC50: −log10 of the molar value.
result_type: pIC50

Here is how some compounds turned out for pIC50.
{"columns": ["compound", "pIC50"],
 "data": [
  ["CC[C@H](Nc1ncnc(N)c1C#N)c1nc2cccc(Cl)c2c(=O)n1N1CCNCC1", 8.15],
  ["C[C@H](Nc1nc(N)nc(N)c1C#N)c1nc2cccc(Cl)c2c(=O)n1C1CCN(CC(F)(F)F)CC1", 7.82],
  ["C[C@H](Nc1ncnc2ccoc12)c1nc2cccc(Cl)c2c(=O)n1N1CCNCC1", 8.00],
  ["Cc1nc(N)nc(N[C@@H](C)c2nc3c(F)ccc(Cl)c3c(=O)n2N2CCNCC2)c1C#N", 9.15],
  ["C[C@H](NC(=O)c1nccnc1N)c1nc2cccc(Cl)c2c(=O)n1N1CCNCC1", 6.64]
]}

a: C[C@H](Nc1ncnc(N)c1C#N)c1nc2cccc(Cl)c2c(=O)n1N1CCC(N)C1 (stereo partly shown)
b: O=c1c2c(F)ccc(F)c2nc([C@@H](Nc2ncnn3ccnc23)C2CC2)n1N1CCNCC1
[in] pIC50 comparison. Which is larger, a or b ? Lab note: record the label of whichever item you select.
[out] a

A: C[C@H](Nc1nc(N)nc(N)c1C#N)c1nc2cccc(Cl)c2c(=O)n1C1CCN(Cc2ccccc2)CC1
B: C[C@H](Nc1ncnc(N)c1C#N)c1nc2cccc(Cl)c2c(=O)n1C1CCCNC1 (stereo partly shown)
C: C[C@H](Nc1ncnc(N)c1C#N)c1nc2cccc(Cl)c2c(=O)n1N1CCCNCC1 [Compound 67]
[in] Sort by pIC50, descending. Reply with the labels, ordered as the question asks.
[out] C, B, A

a: C[C@H](Nc1ncnc(N)c1C#N)c1nc2cccc(Cl)c2c(=O)n1C1CCN(CC(F)(F)F)CC1
b: N#Cc1c(N)nc(N)nc1N[C@H](c1nc2c(Cl)ccc(Cl)c2c(=O)n1C1CCC1)C1CC1
c: C[C@H](Nc1ncnn2ccnc12)c1nc2c(F)ccc(F)c2c(=O)n1N1CCNCC1
[in] Sort by pIC50, descending. Reply with the labels, ordered as the question asks.
[out] b, a, c

---

Target: PI3Kγ (Homo sapiens, UniProt P48736)
Construct: made in house
Sequence (P48736 whole entry): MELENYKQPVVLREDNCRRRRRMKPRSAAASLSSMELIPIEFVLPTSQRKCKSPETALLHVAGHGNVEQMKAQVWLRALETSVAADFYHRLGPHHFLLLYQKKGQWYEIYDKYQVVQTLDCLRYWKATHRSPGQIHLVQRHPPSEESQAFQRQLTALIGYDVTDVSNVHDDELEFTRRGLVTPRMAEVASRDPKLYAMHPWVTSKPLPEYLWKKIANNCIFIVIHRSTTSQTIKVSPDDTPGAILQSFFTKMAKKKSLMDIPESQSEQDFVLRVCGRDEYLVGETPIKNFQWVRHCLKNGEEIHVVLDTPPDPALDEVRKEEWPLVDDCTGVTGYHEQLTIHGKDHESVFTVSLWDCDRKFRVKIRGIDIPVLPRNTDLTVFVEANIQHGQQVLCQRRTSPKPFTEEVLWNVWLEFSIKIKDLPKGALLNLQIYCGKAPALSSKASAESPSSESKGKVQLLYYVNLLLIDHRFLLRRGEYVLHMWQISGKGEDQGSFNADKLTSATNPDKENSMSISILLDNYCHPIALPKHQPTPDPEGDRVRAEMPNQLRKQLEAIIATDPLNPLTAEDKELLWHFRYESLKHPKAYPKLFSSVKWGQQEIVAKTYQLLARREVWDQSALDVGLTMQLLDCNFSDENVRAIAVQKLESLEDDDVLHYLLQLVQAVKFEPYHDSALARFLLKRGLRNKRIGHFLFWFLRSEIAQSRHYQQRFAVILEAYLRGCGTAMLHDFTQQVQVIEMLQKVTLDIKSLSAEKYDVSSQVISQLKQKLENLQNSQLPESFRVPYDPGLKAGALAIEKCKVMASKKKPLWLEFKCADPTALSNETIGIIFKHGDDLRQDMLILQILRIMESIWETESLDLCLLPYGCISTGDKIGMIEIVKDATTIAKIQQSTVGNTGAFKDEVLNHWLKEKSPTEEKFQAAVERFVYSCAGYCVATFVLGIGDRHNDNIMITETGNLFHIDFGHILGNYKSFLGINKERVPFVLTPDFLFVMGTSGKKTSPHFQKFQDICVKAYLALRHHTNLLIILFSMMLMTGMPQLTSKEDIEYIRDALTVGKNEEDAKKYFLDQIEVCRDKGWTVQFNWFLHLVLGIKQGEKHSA
Sequence (Q8WYR1 whole entry partner): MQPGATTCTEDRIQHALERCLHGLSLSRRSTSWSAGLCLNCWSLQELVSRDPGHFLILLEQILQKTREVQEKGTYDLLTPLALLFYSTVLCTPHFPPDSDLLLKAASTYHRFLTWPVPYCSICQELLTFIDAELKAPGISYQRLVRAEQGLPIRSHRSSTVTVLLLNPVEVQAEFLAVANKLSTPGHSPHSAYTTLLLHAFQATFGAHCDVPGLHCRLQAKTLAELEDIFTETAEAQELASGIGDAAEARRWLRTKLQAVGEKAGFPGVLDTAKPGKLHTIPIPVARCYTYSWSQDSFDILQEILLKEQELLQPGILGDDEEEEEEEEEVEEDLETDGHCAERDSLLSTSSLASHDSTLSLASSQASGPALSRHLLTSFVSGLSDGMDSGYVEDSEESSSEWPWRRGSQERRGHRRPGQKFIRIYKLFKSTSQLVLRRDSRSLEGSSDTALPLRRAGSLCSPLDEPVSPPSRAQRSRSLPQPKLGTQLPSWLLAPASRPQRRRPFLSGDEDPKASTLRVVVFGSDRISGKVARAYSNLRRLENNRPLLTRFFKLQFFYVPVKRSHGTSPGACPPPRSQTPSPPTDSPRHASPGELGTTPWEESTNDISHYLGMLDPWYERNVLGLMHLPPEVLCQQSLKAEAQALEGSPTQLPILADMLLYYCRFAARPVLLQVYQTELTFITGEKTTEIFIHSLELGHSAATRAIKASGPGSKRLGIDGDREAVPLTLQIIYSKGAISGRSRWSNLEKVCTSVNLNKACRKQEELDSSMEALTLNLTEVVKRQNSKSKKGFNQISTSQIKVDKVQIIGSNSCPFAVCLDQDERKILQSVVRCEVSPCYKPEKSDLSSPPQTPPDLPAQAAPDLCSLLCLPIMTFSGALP
Experiment: TR-FRET enzymatic activity assay, PI3Kγ
Assay type: biochemical
Conditions: recombinant heterodimeric PI3Kγ 2 nM, 2× Km ATP, 30 minutes at 25°C
pIC50: −log10 of the molar value.
result_type: pIC50

Here is how some compounds turned out for pIC50.
{"columns": ["compound", "system_name", "pIC50"],
 "data": [
  ["C[C@H](Nc1nc(N)nc(N)c1C#N)c1nc2cccc(Cl)c2c(=O)n1[C@@H]1CCOC1 [Compound 137]", "PI3Kγ (Homo sapiens, UniProt P48736)", 6.64],
  ["CN1CCN(n2c([C@@H](Nc3nc(N)nc(N)c3C#N)C3CC3)nc3cccc(Cl)c3c2=O)CC1 [Compound 1]", "PI3Kγ (Homo sapiens, UniProt P48736)", 5.76],
  ["N#Cc1c(N)nc(N)nc1N[C@H](c1nc2cccc(Cl)c2c(=O)n1N1CCNCC1)C1CC1 [Compound 77]", "PI3Kγ (Homo sapiens, UniProt P48736)", 5.54],
  ["CC[C@H](Nc1nc(N)nc(N)c1C#N)c1nc2cccc(Cl)c2c(=O)n1N1CCN(Cc2ccccc2)CC1 [Compound 94]", "PI3Kγ (Homo sapiens, UniProt P48736)", 5.54],
  ["C[C@H](Nc1nc(N)nc(N)c1C#N)c1nc2cccc(Cl)c2c(=O)n1N1CCN(CC(F)F)CC1 [Compound 111]", "PI3Kγ (Homo sapiens, UniProt P48736)", 6.14],
  ["C[C@H](Nc1nc(N)nc(N)c1C#N)c1nc2cccc(Cl)c2c(=O)n1N1CCNC(C(F)(F)F)C1 (stereo partly drawn) [Compound 61]", "PI3Kγ (Homo sapiens, UniProt P48736)", 6.40]
]}

I: Cc1nc(N)nc(N[C@H](c2nc3cccc(Cl)c3c(=O)n2N2CCNCC2)C2CC2)c1C#N [Compound 46]
II: Cc1nc(N)nc(N[C@@H](C)c2nc3cccc(Cl)c3c(=O)n2C2CCN(CC(F)(F)F)CC2)c1C#N [Compound 106]
[in] pIC50 comparison. Which is larger, I or II ? Lab note: record the label of whichever item you select.
[out] II

A: CC[C@H](Nc1nc(N)nc(C)c1C#N)c1nc2cccc(Cl)c2c(=O)n1N1CCN(Cc2ccc(F)cc2)CC1 [Compound 90]
B: N#Cc1c(N)nc(N)nc1N[C@H](c1nc2c(Cl)ccc(Cl)c2c(=O)n1C1CCC1)C1CC1 [Compound 138]
C: C[C@H](NC(=O)c1c(N)nn2cccnc12)c1nc2cccc(Cl)c2c(=O)n1N1CCNCC1 [Compound 36]
[in] Could you please order the items by pIC50, going from the lowest number to the highest? Reply with the labels, ordered as the question asks.
[out] C, A, B
(C: 5.24, A: 5.70, B: 6.28)

1: CC[C@H](Nc1nc(N)nc(N)c1C#N)c1nc2cccc(Cl)c2c(=O)n1N1CCN(Cc2ccc(OC)cc2)CC1 [Compound 92]
2: C[C@H](Nc1nc(N)nc(N)c1C#N)c1nc2cccc(Cl)c2c(=O)n1C1CCN(Cc2ccccc2)CC1 [Compound 101]
[in] Looking at recorded values for pIC50, does 1 or 2 come in lower? Lab note: record the label of whichever item you select.
[out] 2
(2: 5.38, 1: 5.85)

---

Target: PI3Kγ (Homo sapiens, UniProt P48736)
Construct: made in house
Assay: TR-FRET enzymatic activity assay, PI3Kγ
Format: biochemical
Settings: recombinant heterodimeric PI3Kγ 2 nM, 2× Km ATP, 30 minutes at 25°C
result_type: IC50 (nM)

P: Cc1nc(N)nc(N[C@@H](C)c2nc3cccc(Cl)c3c(=O)n2N2CCN(CC(F)F)CC2)c1C#N
Q: CC[C@H](Nc1nc(N)nc(N)c1C#N)c1nc2cccc(Cl)c2c(=O)n1N1CCN(Cc2ccc(F)cc2)CC1
[in] Looking at recorded values for IC50, does P or Q come in lower? Lab note: record the label of whichever item you select.
[out] P
(P: 560 nM, Q: 930 nM)

---

Biological target: PI3Kδ (Homo sapiens)
Construct: made in house
Assay: TR-FRET enzymatic activity assay, PI3Kδ
Assay type: biochemical
Details: recombinant heterodimeric PI3Kδ 25-50 pM, 2× Km ATP, 30 minutes at 25°C
pIC50: −log10 of the molar value.
result_type: pIC50

Here is how some compounds turned out for pIC50.
{"columns": ["compound", "pIC50"],
 "data": [
  ["C[C@H](NC(=O)c1nc(Cl)c(N)nc1N)c1nc2cccc(Cl)c2c(=O)n1N1CCNCC1", 7.85],
  ["C[C@H](Nc1nc(N)nc(N)c1C#N)c1nc2cccc(Cl)c2c(=O)n1N1CCNC2(CC2)C1", 9.10],
  ["C[C@H](Nc1nc(N)nc(N)c1C#N)c1nc2cccc(Cl)c2c(=O)n1[C@H]1CCCNC1", 7.66],
  ["C[C@H](Nc1nc(N)nc(N)c1C#N)c1nc2cccc(Cl)c2c(=O)n1C1CCNCC1(F)F (stereo partly drawn)", 8.22],
  ["C[C@H](Nc1nc(N)nc(N)c1C#N)c1nc2cccc(Cl)c2c(=O)n1N1CCN(C2COC2)CC1", 7.82],
  ["C[C@H](Nc1ncnc(N)c1C#N)c1nc2cccc(Cl)c2c(=O)n1C1CCN(C2CCN(C)CC2)CC1", 7.46]
]}

A: CC[C@H](Nc1nc(N)nc(N)c1C#N)c1nc2cccc(Cl)c2c(=O)n1N1CCN(Cc2ccc(C(F)(F)F)cc2)CC1
B: C[C@H](Nc1ncnc(N)c1C#Cc1ccc(F)cn1)c1nc2cccc(Cl)c2c(=O)n1C1CNC1
[in] pIC50 comparison. Which is larger, A or B ? Lab note: record the label of whichever item you select.
[out] A
(A: 7.24, B: 6.60)

a: C[C@H](Nc1ncnc(N)c1C#N)c1nc2cccc(Cl)c2c(=O)n1C1CCN(C)CC1
b: C[C@H](Nc1ncnc2ccc(Cl)nc12)c1nc2cccc(Cl)c2c(=O)n1N1CCNCC1
[in] pIC50 comparison. Which is larger, a or b ? Lab note: record the label of whichever item you select.
[out] b
(b: 8.70, a: 7.17)

A: C[C@H](Nc1ncnc(N)c1C#N)c1nc2cccc(Cl)c2c(=O)n1C1CCNC1 (stereo partly drawn)
B: O=c1c2c(Cl)cccc2nc([C@@H](Nc2ncnn3ccnc23)C2CC2)n1N1CCNCC1
C: Cc1nc(N)nc(N[C@@H](C)c2nc3cccc(Cl)c3c(=O)n2N2CCN(CC(F)(F)F)CC2)c1C#N
[in] Sort by pIC50, descending. Reply with the labels, ordered as the question asks.
[out] B, A, C

All values here come from patent EP3154958B1.
